system: MCF7; assay: Effect on DNA level in human MCF7 cells assessed per 10 '6 cells at 5 ug/ml after 24 hrs (reference value: 6.80 +/- 0.70 ug/10^6 cells); assay type: functional
Listing of recorded Activity by entry.
Provide only the numeric value, understood in µg/10^6 cells.

Some solved cases for reference:
1) CCOCCSc1ncnc2c1cnn2-c1nc(C)nc2sc3c(c12)-c1ccccc1CC3 : 4.2
2) Cc1nc(-n2ncc3c(S[C@@H]4O[C@H](CO)[C@@H](O)[C@H]4O)ncnc32)c2c3c(sc2n1)CCc1ccccc1-3 : 5.16
3) Cc1nc(-n2ncc3c(=S)[nH]cnc32)c2c3c(sc2n1)CCc1ccccc1-3 : 5
4) COCCSc1ncnc2c1cnn2-c1nc(C)nc2sc3c(c12)-c1ccccc1CC3 : 3.44
5) CCSc1ncnc2c1cnn2-c1nc(C)nc2sc3c(c12)-c1ccccc1CC3 : 3.1
6) Cc1nc(-n2ncc3c(=O)[nH]cnc32)c2c3c(sc2n1)CCc1ccccc1-3 : 3.8

Quick check: Activity of Cc1nc(-n2ncc3c(Cl)ncnc32)c2c3c(sc2n1)CCc1ccccc1-3 ?
4.46

Attribution: ChEMBL document CHEMBL1759915
